pEC50 values, listed per item
# Measured On: T1, human MSLN on OVCAR3 tumor cells (human, UniProt Q13421 296-598)
# T1 construct: whole, on cells; also called human MSLN protein
# Measurement Description: FACS, OVCAR3 cells
The scale used: pEC50 is minus the common logarithm of the concentration in molar units.

stdin: For the binder shown here, F7.33.24-H9 (scFv, not shown: small tags and cut ends, also called S009-F7.33.24 humanized antibody VH2 + VL3) scFv: EVQLVQSGAEVKKPGASVKVSCKASGYTFTSYWMHWVRQAPGQGLEWMGNVNPSNGGSNYNEKFKNRVTITVDKSASTAYMELSSLRSEDTAVYYCAPHYIGSRPGFAYWGQGTLVTVSSGGGGSGGGGSGGGGSDIVMTQTPLSLSVTPGQPASISCKASQNVGTNIAWYQQKPGQSPQALIYSASYRYSGVPDRFSGSGSGTDFTLKISRVEAEDVGVYYCQQYNSYPLTFGGGTKVEIK , give the reported pEC50.
stdout: 8.59

stdin: For the binder shown here, F7.33.24-H6 (scFv, not shown: small tags and cut ends, also called S009-F7.33.24 humanized antibody VH1a + VL3) scFv: EVQLVQSGAEVKKPGASVKVSCKASGYTFTSYWMHWVRQAPGQRLEWMGNVNPSSGGSNYNEKFKNRVTITVDKSASTAYMELSSLRSEDTAVYYCAPHYIGSRPGFAYWGQGTLVTVSSGGGGSGGGGSGGGGSDIVMTQTPLSLSVTPGQPASISCKASQNVGTNIAWYQQKPGQSPQALIYSASYRYSGVPDRFSGSGSGTDFTLKISRVEAEDVGVYYCQQYNSYPLTFGGGTKVEIK , give the reported pEC50.
stdout: 8.97

stdin: For the binder shown here, F7.33.24-H7 (scFv, not shown: small tags and cut ends, also called S009-F7.33.24 humanized antibody VH2 + VL1) scFv: EVQLVQSGAEVKKPGASVKVSCKASGYTFTSYWMHWVRQAPGQGLEWMGNVNPSNGGSNYNEKFKNRVTITVDKSASTAYMELSSLRSEDTAVYYCAPHYIGSRPGFAYWGQGTLVTVSSGGGGSGGGGSGGGGSDIVMTQSPDSLAVSLGERATINCKASQNVGTNIAWYQQKPGQSPKALIYSASYRYSGVPDRFSGSGSGTDFTLTISSLQAEDVAVYYCQQYNSYPLTFGGGTKVEIK , give the reported pEC50.
stdout: 8.70

Recorded values, source patent US20250250357A1.
